experiment_notes: Pharmacokinetics after oral administration, plasma by LC/MS/MS, monkey
Type: in vivo
condition_label: plasma, oral, 2 mg/kg (as salt), 0.5% methylcellulose in water

| compound | Cmax, ng/mL |
| --- | --- |
| CN[C@H](CNC(=O)N1CCC[C@@H]([C@@H](OCCNC(=O)OC)c2cccc(Cl)c2)C1)C[C@H]1CCCOC1.O=C(O)/C=C/C(=O)O [Fumarate] | 145 |

###

experiment_notes: Pharmacokinetics after oral administration, plasma by LC/MS/MS, dog
Type: in vivo
condition_label: plasma, oral, 1 mg/kg (as salt), 2% DMSO in water

| compound | Cmax / ng/mL |
| --- | --- |
| CN[C@H](CNC(=O)N1CCC[C@@H]([C@@H](OCCNC(=O)OC)c2cccc(Cl)c2)C1)C[C@H]1CCCOC1.O=C(O)/C=C/C(=O)O [Fumarate] | 286 |
